assay notes: 14-day repeat IV dose toxicity study with toxicokinetic evaluation on Day 1 and 14 in dogs
Format: in vivo, beagle dogs
particulars: dog, in vivo, iv, 10 mg/kg/day, IV 10 mg/kg/day, female, Day 14, read-out: Cl
Ends that are not written are not given here.
reported property: clearance

clearance recorded for this substance, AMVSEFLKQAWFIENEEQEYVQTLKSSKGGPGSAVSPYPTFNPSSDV-NH2 [Peptide 1] , is 36.7 mL/min/kg

====

assay notes: Clinical test in humans, three 30-min i.v. infusions 8 hours apart, plasma PK
Type: in vivo
particulars: human, in vivo, iv, three 30-min i.v. infusions 8 h apart, 100 μg/kg each, GM, read-out: AUC0-24
Ends that are not written are not given here.
reported property: AUC(0-t)

Short answer for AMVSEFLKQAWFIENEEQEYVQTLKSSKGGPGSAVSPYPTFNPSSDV-NH2 [Peptide 1] : AUC(0-t) was 3600 ng·h/mL

====

assay notes: Clinical test in humans, single 30-min i.v. infusion, plasma PK
Assay type: in vivo
particulars: in vivo, iv, 25 ug/kg; human, single 30-min i.v. infusion 25 μg/kg, GM
Procedure: A total of 8 healthy subjects were included in each group. […] In these groups, 6 subjects received the active treatment (i.e. a single Peptide 1 30-min intravenous (i.v.) infusion corresponding to the above doses) and 2 received the placebo. In order to prevent any anticipated unblinding, the subjects under active treatment were recorded by the bioanalytical laboratory. […]
Ends that are not written are not given here.
reported property: Tmax (min)
Report the value in min with no unit label.

Tmax in this record for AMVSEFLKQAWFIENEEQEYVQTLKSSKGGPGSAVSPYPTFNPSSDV-NH2 [Peptide 1] : 30

====

assay notes: Clinical test in humans, three 30-min i.v. infusions 8 hours apart, plasma PK
Assay type: in vivo
particulars: human, plasma, iv, 200 μg/kg, three 30-min i.v. infusions 8 h apart, 200 μg/kg each, GM, read-out: Cmax3
Procedure: A total of 8 subjects were included in each group. In each group, 6 subjects received the active treatment and 2 received the placebo. […] Plasma samples were analyzed for Peptide 1 using validated Liquid chromatography—Tandem Mass spectrometry (LC-MS/MS) methods by Charles River Laboratories (CRL). […]
Ends that are not written are not given here.
reported property: Cmax (ng/mL)
// units = ng/mL; emit number, no label

Kindly note the recorded Cmax for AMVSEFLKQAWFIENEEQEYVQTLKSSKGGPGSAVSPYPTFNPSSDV-NH2 [Peptide 1] , which is 2130

====

assay notes: Clinical test in humans, three 30-min i.v. infusions 8 hours apart, plasma PK
Assay type: in vivo
particulars: human, in vivo, iv, 100 ug/kg, three 30-min i.v. infusions 8 h apart, 100 μg/kg each, GM, read-out: AUC0-tau2
Ends that are not written are not given here.
reported property: AUC (ng·h/mL)
Please state the figure in ng·h/mL; there is no need to write the unit.

Reported AUC of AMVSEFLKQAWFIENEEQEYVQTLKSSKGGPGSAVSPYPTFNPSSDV-NH2 [Peptide 1] : 1240

====

assay notes: 14-day repeat dose IV toxicity study with toxicokinetic evaluation on Day 1 and Day 14 in rats
Type: in vivo, Wistar rats
particulars: rat, in vivo, iv, 10 mg/kg/day, IV 10 mg/kg/day, female, Day 1, read-out: AUC0-∞ (converted)
Ends that are not written are not given here.
reported property: AUC(0-inf) (ng·h/mL)
Report as a plain number; the unit ng·h/mL is understood.

Summary for this substance, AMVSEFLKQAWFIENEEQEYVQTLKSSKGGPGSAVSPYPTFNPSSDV-NH2 [Peptide 1] : AUC(0-inf) is 9570

====

assay notes: Clinical test in humans, three 30-min i.v. infusions 8 hours apart, plasma PK
Type: in vivo
particulars: human, in vivo, iv, 140 ug/kg, three 30-min i.v. infusions 8 h apart, 140 μg/kg each, mean, read-out: AUC0-24
Ends that are not written are not given here.
reported property: AUC(0-t) (ng·h/mL)
API: value field is a number in ng·h/mL; no unit string.

// sample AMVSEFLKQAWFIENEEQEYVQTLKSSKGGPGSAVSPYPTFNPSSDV-NH2 [Peptide 1] , its AUC(0-t) was 5410

====

assay notes: PK after single intravenous injection of Peptide 1 in male rats
Parameters: species or system male Wistar (CRL: WI(Han)) rats
particulars: rat, in vivo, iv, 1 mg/kg, single IV 1.0 mg/kg, initial elimination phase, read-out: T½
Procedure: Peptide 1 in blood samples collected from animals used in the studies (rat and dog) has been measured by an LC-MS/MS method. Analysis of samples collected in the pharmacokinetic study in rats was performed prior to validation of the method. […] Peptide 1 was quantifiable in all plasma samples in the study. […] Plasma samples obtained 60 minutes post dosing in Group 1 had plasma concentration of Peptide 1 below the limit of quantification.
Ends that are not written are not given here.
reported property: half-life (min)
State the answer as a number, implicitly in min.

Please fill in: half-life reported for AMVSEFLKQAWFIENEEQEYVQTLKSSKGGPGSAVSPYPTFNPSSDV-NH2 [Peptide 1] = 3.34

====

assay notes: 14-day repeat dose IV toxicity study with toxicokinetic evaluation on Day 1 and Day 14 in rats
Format: in vivo, Wistar rats
particulars: rat, in vivo, iv, 10 mg/kg/day, IV 10 mg/kg/day, male, Day 14
Ends that are not written are not given here.
reported property: clearance (mL/min/kg)
Your answer should be a plain number; it is taken to be in mL/min/kg.

The reported clearance of the substance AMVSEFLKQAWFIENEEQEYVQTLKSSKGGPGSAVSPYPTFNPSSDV-NH2 [Peptide 1] was 18.2

====

assay notes: 14-day repeat IV dose toxicity study with toxicokinetic evaluation on Day 1 and 14 in dogs
Assay type: in vivo, beagle dogs
particulars: dog, in vivo, iv, 3 mg/kg/day, IV 3.0 mg/kg/day, female, Day 14, read-out: T1/2
Ends that are not written are not given here.
reported property: half-life (min)
Give just the numeric value; min need not be written.

Per the records, this substance ( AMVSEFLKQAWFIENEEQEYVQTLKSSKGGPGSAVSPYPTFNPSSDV-NH2 [Peptide 1] ) has half-life equal to 6.13

====

assay notes: 14-day repeat IV dose toxicity study with toxicokinetic evaluation on Day 1 and 14 in dogs
Assay type: in vivo, beagle dogs
particulars: dog, in vivo, 10 mg/kg, Group 4 (10 mg/kg), range over sexes and Days 1 and 14, read-out: AUCinf
Ends that are not written are not given here.
reported property: AUC(0-inf)

Reported AUC(0-inf) ( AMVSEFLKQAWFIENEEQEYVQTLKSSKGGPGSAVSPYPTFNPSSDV-NH2 [Peptide 1] ) = 3930 to 4680 ng·h/mL

====

assay notes: Clinical test in humans, single 30-min i.v. infusion, plasma PK
Assay type: in vivo
particulars: human, in vivo, iv, 100 ug/kg, single 30-min i.v. infusion 100 μg/kg, mean
Ends that are not written are not given here.
reported property: clearance (mL/min/kg)
Please respond with the number in mL/min/kg and leave the unit unwritten.

Reported clearance of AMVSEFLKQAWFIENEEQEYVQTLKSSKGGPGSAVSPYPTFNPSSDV-NH2 [Peptide 1] : 1.5

====

assay notes: PK after single intravenous injection of Peptide 1 in male rats
Set-up: species or system male Wistar (CRL: WI(Han)) rats
particulars: rat, in vivo, iv, 0.1 mg/kg, single IV 0.1 mg/kg, initial elimination phase, read-out: Vz
Ends that are not written are not given here.
reported property: Vd (L/kg)
// units = L/kg; emit number, no label

// Vd value for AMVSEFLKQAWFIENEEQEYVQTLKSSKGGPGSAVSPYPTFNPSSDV-NH2 [Peptide 1] : 0.0505

====

assay notes: Clinical test in humans, three 30-min i.v. infusions 8 hours apart, plasma PK
Format: in vivo
particulars: human, in vivo, iv, 250 ug/kg, three 30-min i.v. infusions 8 h apart, 250 μg/kg each, GM, read-out: AUC0-tau2
Description: A total of 8 subjects were included in each group. In each group, 6 subjects received the active treatment and 2 received the placebo. […] Plasma samples were analyzed for Peptide 1 using validated Liquid chromatography—Tandem Mass spectrometry (LC-MS/MS) methods by Charles River Laboratories (CRL). […]
Ends that are not written are not given here.
reported property: AUC

Per the records, this substance ( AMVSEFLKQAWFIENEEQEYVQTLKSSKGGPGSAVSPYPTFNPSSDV-NH2 [Peptide 1] ) has AUC equal to 2390 ng·h/mL

====

assay notes: Clinical test in humans, three 30-min i.v. infusions 8 hours apart, plasma PK
Format: in vivo
particulars: human, in vivo, iv, three 30-min i.v. infusions 8 h apart, 100 μg/kg each, mean, read-out: AUC0-tau3
Ends that are not written are not given here.
reported property: AUC (ng·h/mL)
Report as a plain number; the unit ng·h/mL is understood.

For this substance ( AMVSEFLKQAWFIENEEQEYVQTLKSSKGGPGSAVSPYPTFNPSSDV-NH2 [Peptide 1] ), measured AUC is 1260

The values you see were collected from patent US20250345392A1.
